Please respond with reported protein stability index for every item in the list.
Experiment: protein stability index of a GFP-peptide fusion (GPS, HEK-293T) (PSI 1-6); higher = more stable;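 further: 24-mer peptide tiles fused after GFP, lentivirally expressed, FACS-sorted into six equal bins by GFP/DsRed ratio, decoded by Illumina sequencing, PSI is the read-weighted mean bin number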
Conditions: treatment: DMSO; c terminus: a fixed tail appended
Answer as a number with no unit attached.

Value of measured protein stability index for the entry GLLQDQGSGLSSRFEEPKGPPARQ [CBY2] : 4.89

Value of measured protein stability index for the entry LMQVHASRSNNMGIVGGFTQMIRE [SLC25A25] : 2.75

Value of measured protein stability index for the entry GLRASTSDGILRGNGTGYLPGRGR [RHOBTB2] : 4.58

Value of measured protein stability index for the entry MVVDFWTWEQTFQELIQEAKPRAT [RTP4] : 2.5

Value of measured protein stability index for the entry EKVLDQVETELQRRNEETPEEGQQ [GDAP1] : 5.68

Value of measured protein stability index for the entry NTPMEETVRAMTHVINQGMAMYWG [KCNAB2] : 2.92

Value of measured protein stability index for the entry SRELASMNLDIVDLLKKAKFHHSD [RHOBTB3] : 3.2

Value of measured protein stability index for the entry TEPMAWNETADLGLDIGAQGEPLG [CTNNB1] : 5.29

Value of measured protein stability index for the entry IKAWMDRYEEANNNQYSEGVQREA [KMT2E] : 3.77

Value of measured protein stability index for the entry AVATASRLGPYVLLEPEEGGRAYQ [TRIB3] : 3.79

Value of measured protein stability index for the entry KRSVYIDARDEELEKDTMDNWDEK [ZC3H15] : 4.98

Value of measured protein stability index for the entry VVHRSDEQQHYFNTPFQLSIAPPE [PPTC7] : 3.96

Value of measured protein stability index for the entry QQEVVVAGSSLPTSSKVNATVPSN [ACBD3] : 5.12

Value of measured protein stability index for the entry TGAHWMRQPVSFHRVKLTNSTLDP [TBX6] : 2.96

Value of measured protein stability index for the entry LDRERAAANEQLTRAILRERICSE [CHCHD3] : 4.14

Value of measured protein stability index for the entry QIEYEYKLAQALHEMREQHDAQVR [LMNB1] : 3.83

Value of measured protein stability index for the entry DTLFERATNSSWVVVFKALVTTHH [SNAP91] : 2.62

Value of measured protein stability index for the entry VWYVKKFGRYLEHLEVKFMNPYNA [FBXO39] : 2.66

Value of measured protein stability index for the entry PSLPAAGEQDCCGERVVINISGLR [KCNA3] : 3.79

Value of measured protein stability index for the entry PQQAPQDDGSQDPEVLDRESRDRP [PWWP2B] : 5.63

Value of measured protein stability index for the entry RQIIKLNRRLQLLEEENKERAKRE [MFF] : 3.81

Value of measured protein stability index for the entry TVLTRSLFLGRILSLTSSASRLLT [FANCE] : 2.72

Value of measured protein stability index for the entry ITTIGYGHAAPGTDAGKAFCMFYA [KCNK9] : 2.9

Value of measured protein stability index for the entry GNCKYKVDCACLKENPECPVLKRS [KMT2E] : 3.41

Value of measured protein stability index for the entry TRIMIGLTLVFFVQITGQPNILFY [SLC2A12] : 3.16

Value of measured protein stability index for the entry QLQHEKAELEQHLEQEQEFQVNKL [CCDC6] : 5.35

Value of measured protein stability index for the entry MAAKSQPNIPKAKSLDGVTNDRTA [DHCR7] : 5
